Target: T-type calcium channel (Homo sapiens)
Test: Measurement of ion currents through T-type calcium channel using automated patch clamp
Settings: whole-cell automated patch clamp, HEK-293 cells expressing T-type calcium channel, 10 mM Ba2+
Overview of reported log10 IC50 across a group of compounds:
observable: log10 IC50 (log10 of the value in µM)

> print(dat)
                                   compound                        measured.target  observable  reading
1  CCCC1CCCCN1CCCNC(=O)c1ccc2c(c1)C(=O)N(Cc1ccc(I)cc1)C2 (centres unmarked) [Compound 36]  T-type calcium channel (Homo sapiens)  log10 IC50     0.84
2  CC(C)C1CCCCN1CCCNC(=O)c1ccc2c(c1)C(=O)N(Cc1cccc(Br)c1)C2 (centres unmarked) [Compound 42]  T-type calcium channel (Homo sapiens)  log10 IC50     0.62
3  CCCCC1CCCCN1CCCNC(=O)c1ccc2c(c1)C(=O)N(Cc1cccc(Cl)c1)C2 (centres unmarked) [Compound 49]  T-type calcium channel (Homo sapiens)  log10 IC50    -0.21
4  CCCCC1CCCCN1CCCNC(=O)c1ccc2c(c1)C(=O)N(Cc1ccccc1)C2 (centres unmarked) [Compound 46]  T-type calcium channel (Homo sapiens)  log10 IC50     0.42
5  CCCC1CCCCN1CCCNC(=O)c1ccc2c(c1)C(=O)N(Cc1cccc(Br)c1)C2 (centres unmarked) [Compound 33]  T-type calcium channel (Homo sapiens)  log10 IC50     0.24
6  CC(C)C1CCCCN1CCCNC(=O)c1ccc2c(c1)C(=O)N(Cc1cccc(Cl)c1)C2 (centres unmarked) [Compound 40]  T-type calcium channel (Homo sapiens)  log10 IC50     0.00
7  CC(C)C1CCCCN1CCCNC(=O)c1ccc2c(c1)C(=O)N(Cc1ccc(I)cc1)C2 (centres unmarked) [Compound 45]  T-type calcium channel (Homo sapiens)  log10 IC50     0.03
8  CCC1CCCCN1CCCNC(=O)c1ccc2c(c1)C(=O)N(Cc1cccc(Br)c1)C2 (centres unmarked) [Compound 24]  T-type calcium channel (Homo sapiens)  log10 IC50     0.61

---

Target: T-type calcium channel (Homo sapiens, UniProt O43497)
Sequence (O43497 whole entry): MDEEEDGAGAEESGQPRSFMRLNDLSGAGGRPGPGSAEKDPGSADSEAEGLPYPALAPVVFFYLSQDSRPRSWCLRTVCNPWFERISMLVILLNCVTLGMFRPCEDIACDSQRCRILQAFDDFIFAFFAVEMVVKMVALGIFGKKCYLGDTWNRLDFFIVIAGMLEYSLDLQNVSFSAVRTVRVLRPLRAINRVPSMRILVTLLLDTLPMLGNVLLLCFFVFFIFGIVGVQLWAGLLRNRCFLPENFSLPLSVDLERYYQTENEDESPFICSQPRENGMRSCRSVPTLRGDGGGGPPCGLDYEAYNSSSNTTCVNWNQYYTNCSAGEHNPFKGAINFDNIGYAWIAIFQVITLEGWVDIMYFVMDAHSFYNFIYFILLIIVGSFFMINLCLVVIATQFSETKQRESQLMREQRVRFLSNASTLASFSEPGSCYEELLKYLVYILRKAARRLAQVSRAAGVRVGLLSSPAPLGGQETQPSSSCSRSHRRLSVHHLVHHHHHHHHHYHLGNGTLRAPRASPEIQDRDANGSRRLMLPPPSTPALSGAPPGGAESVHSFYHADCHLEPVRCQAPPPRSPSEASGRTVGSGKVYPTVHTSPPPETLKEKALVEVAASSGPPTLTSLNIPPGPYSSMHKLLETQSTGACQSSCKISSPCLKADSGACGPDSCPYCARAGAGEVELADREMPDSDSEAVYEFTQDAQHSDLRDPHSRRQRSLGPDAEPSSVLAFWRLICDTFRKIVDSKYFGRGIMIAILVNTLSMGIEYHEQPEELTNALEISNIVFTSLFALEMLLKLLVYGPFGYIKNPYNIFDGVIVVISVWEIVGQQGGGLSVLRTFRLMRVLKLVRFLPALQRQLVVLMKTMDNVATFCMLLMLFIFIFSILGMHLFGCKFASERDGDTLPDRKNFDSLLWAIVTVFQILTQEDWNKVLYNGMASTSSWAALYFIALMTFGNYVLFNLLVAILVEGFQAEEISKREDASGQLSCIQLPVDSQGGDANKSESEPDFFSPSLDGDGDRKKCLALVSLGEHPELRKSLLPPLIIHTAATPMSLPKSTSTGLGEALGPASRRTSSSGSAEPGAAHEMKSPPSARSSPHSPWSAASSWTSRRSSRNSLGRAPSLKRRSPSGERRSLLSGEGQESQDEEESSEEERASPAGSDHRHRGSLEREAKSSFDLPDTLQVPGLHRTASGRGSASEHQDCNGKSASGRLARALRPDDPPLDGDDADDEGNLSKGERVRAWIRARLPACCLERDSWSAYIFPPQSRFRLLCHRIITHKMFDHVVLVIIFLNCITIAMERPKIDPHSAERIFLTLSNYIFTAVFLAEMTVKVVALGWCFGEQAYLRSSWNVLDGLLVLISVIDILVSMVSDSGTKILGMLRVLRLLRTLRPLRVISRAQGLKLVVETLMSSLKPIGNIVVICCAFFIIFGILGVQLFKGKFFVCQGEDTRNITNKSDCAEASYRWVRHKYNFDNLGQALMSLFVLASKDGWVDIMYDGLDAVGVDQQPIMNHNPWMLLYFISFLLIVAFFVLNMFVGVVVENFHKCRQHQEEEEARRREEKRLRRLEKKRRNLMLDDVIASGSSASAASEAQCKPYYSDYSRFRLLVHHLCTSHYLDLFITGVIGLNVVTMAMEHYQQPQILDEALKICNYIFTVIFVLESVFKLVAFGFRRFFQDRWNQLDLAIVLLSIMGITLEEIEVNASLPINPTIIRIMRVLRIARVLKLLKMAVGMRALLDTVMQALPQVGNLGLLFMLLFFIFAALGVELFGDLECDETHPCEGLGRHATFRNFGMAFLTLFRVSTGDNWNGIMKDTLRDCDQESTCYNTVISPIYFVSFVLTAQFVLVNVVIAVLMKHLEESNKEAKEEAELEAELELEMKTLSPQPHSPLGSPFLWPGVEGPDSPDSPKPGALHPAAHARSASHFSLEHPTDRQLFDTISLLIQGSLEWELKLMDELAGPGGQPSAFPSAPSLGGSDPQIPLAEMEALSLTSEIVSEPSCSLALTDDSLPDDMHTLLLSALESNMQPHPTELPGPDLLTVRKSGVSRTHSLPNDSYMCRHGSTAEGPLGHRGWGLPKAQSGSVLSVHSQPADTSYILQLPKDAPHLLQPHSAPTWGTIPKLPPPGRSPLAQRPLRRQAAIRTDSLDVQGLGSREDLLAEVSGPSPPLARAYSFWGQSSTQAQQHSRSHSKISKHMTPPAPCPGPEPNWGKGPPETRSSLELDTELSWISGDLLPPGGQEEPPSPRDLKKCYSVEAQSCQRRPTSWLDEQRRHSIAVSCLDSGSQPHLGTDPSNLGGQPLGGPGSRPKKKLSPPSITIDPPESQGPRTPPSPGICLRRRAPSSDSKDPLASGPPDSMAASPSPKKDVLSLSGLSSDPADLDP
Experiment: Measurement of ion currents through T-type calcium channel using automated patch clamp
Conditions: whole-cell automated patch clamp, HEK-293 cells expressing T-type calcium channel, 10 mM Ba2+
Description: The selected compounds were used in a second assay for T-type calcium channel inhibiting activity using electrophysiological whole cell patch clamp method, wherein mammal HEK293 cell lines, which are originated from human kidney carcinoma cells and which specifically express alG of T-type calcium channel, were used for the second assay. As a reference drug, mibefradil which had been developed as T-type calcium channel inhibitor was used. […]
pIC50: −log10 of the molar value.
observable: pIC50

> print(dat)
                                   molecule  reading
1  CC(C)C1CCCCN1CCCNC(=O)c1ccc2c(c1)C(=O)N(Cc1cccc(I)c1)C2 (centres unmarked) [Compound 44]     5.36
2  CC(C)C1CCCCN1CCCNC(=O)c1ccc2c(c1)C(=O)N(Cc1ccc(Br)cc1)C2 (centres unmarked) [Compound 43]     5.29
3  O=C(NCCCN1CCCCC1)c1ccc2c(c1)C(=O)N(Cc1ccccc1)C2 [Compound 1]     5.02
4  CCCCC1CCCCN1CCCNC(=O)c1ccc2c(c1)C(=O)N(Cc1cccc(F)c1)C2 (centres unmarked) [Compound 47]     5.64
5  O=C(NCCCN1CCCCC1c1ccccc1)c1ccc2c(c1)C(=O)N(Cc1cccc(Br)c1)C2 (centres unmarked) [Compound 60]     5.81
6  O=C(NCCCN1CCCCC1)c1ccc2c(c1)C(=O)N(Cc1ccc(Br)cc1)C2 [Compound 7]     5.01
7  CCCCC1CCCCN1CCCNC(=O)c1ccc2c(c1)C(=O)N(Cc1ccc(F)cc1)C2 (centres unmarked) [Compound 48]     5.72
8  O=C(NCCCN1CCCCC1c1ccccc1)c1ccc2c(c1)C(=O)N(Cc1ccc(Br)cc1)C2 (centres unmarked) [Compound 61]     5.97
